Test system: male mice
Assay: in vivo
Settings: 2 g/kg oral, 7 days
attributeMeasured: Number of Dead Mice/Number of Mice Tested

{"smilesNotation": "CCCCCCc1ccc2ccccc2c1Nc1ccccc1C(=O)O", "testedTarget": "male mice", "result": "0 /10"}
{"smilesNotation": "O=C(O)c1ccccc1Nc1cc(Cl)cc2ccccc12", "testedTarget": "male mice", "result": "0 / 5"}
{"smilesNotation": "O=C(O)c1ccccc1Nc1c(Cl)ccc2ccccc12", "testedTarget": "male mice", "result": "2 / 5"}
{"smilesNotation": "Cc1cc(Nc2ccccc2C(=O)O)c2ccccc2c1C", "testedTarget": "male mice", "result": "2 / 5"}
{"smilesNotation": "O=C(O)c1ccccc1Nc1ccc(Cl)c2ccccc12", "testedTarget": "male mice", "result": "0 / 5"}
{"smilesNotation": "CCCCc1ccc(Nc2ccccc2C(=O)O)c2ccccc12", "testedTarget": "male mice", "result": "0 /10"}

Please look at the items below and tell me Number of Dead Mice/Number of Mice Tested for each one, in order.
1. CC(C)Cc1ccc(Nc2ccccc2C(=O)O)c2ccccc12
2. O=C(O)c1ccccc1Nc1c(Cl)cc(Br)c2ccccc12

Resp:
0 /10
0 / 5
